For each record, write down the corresponding pEC50.
Target: T1R1/T1R3 receptor (Felis catus)
Assay: cell-based
Format: cell-based
Settings: EC50 +IMP, +IMP (0.2 mM); Table 18
Conceptually, pEC50 converts a concentration in mol/L into minus its log10.

Inquiry: Given the compound CCCC(CCC)C(=O)Nc1ccc2c(c1)OCO2 , write its reported pEC50.
Reply text: 3.57

Inquiry: Tell us which pEC50 value is on record for CCC(CC)NC(=O)c1ccc2c(c1)OCCO2
Reply text: 3.52

Inquiry: Tell me pEC50 reported for COc1cc(C(=O)NC(C(N)=O)c2ccccc2)cc(Cl)c1OC (stereo not shown)
Reply text: 3.17

###

Record form. Attribute: EC50. Fill in for each entry.
Molecular target: cat T1R1/T1R3 receptor (Felis catus, UniProt A0ABI7Z2I4)
Test: cell-based
Where a name gives a salt, the structure may show the parent alone.
Field: numeric (µM). Do not append units.

Inquiry: Tell us which EC50 value is on record for Nc1ncnc2c1ncn2[C@@H]1O[C@H](COP(=O)(O)O)[C@@H](O)[C@H]1O [adenosine monophosphate (AMP), adenosine monophosphate, reference compound]
Reply text: 11

Inquiry: Please give measured EC50 of the following entry: Nc1nc2c(ncn2[C@@H]2O[C@H](COP(=O)(O)OP(=O)(O)O)[C@@H](O)[C@H]2O)c(=O)[nH]1 [Guanosine 5′-diphosphate sodium salt, Guanosine 5′-diphosphate]
Reply text: 200

Inquiry: Please report EC50 for the following compound: C[C@H](N)C(=O)O
Reply text: 13600

Inquiry: Using the record for Nc1ncnc2c1ncn2[C@@H]1O[C@H](COP(O)(O)=S)[C@@H](O)[C@H]1O [Adenosine-5′-O-monophosphorothioate] , state its measured EC50.
Reply text: 11

###

Biological target: T1R1/T1R3 receptor (Felis catus, UniProt E3UMS2)
Assay: cell-based
Conditions: threshold concentration in the presence of 0.2 mM IMP
Excerpt: HEK293 cells that stably express T1R3 and inducibly express T1R1 were exposed to nucleotide derivatives alone to activate the umami receptor. Activation of the T1R1/T1R3 receptor was detected by a change in intracellular calcium levels using a calcium sensitive fluorescent dye. Cells that express T1R3 but not T1R1 were used as a control. A FLIPR® Tetra or a FlexStation® 3 was used for data capture. […]
Sequence (E3UMS2 entry or part of it, one chain of several): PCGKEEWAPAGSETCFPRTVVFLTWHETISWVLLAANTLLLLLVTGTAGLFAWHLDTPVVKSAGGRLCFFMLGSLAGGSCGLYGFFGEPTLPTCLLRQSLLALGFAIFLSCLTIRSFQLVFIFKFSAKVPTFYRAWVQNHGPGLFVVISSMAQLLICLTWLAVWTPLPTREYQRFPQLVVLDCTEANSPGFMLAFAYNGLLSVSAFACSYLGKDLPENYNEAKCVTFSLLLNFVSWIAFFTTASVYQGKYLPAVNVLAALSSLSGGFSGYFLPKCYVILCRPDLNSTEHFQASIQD
Measured attribute: Thres (mM), +IMP (0.2 mM)
Entry rule: numbers only, all in mM.

Inquiry: Specify measured Thres (mM), +IMP (0.2 mM) for O=C(NCCc1ccccc1)c1ccccc1 [N-phenethylbenzamide] .
Reply text: 0.01

Inquiry: Please list Thres (mM), +IMP (0.2 mM) recorded for the molecule O=C(NCCc1c[nH]c2ccccc12)c1cccnc1 [N-(2-(1H-indol-3-yl)ethyl)nicotinamide, N-(2-(1H-Indol-3-yl)ethyl)nicotinamide]
Reply text: 0.003

Inquiry: Name the recorded Thres (mM), +IMP (0.2 mM) of the item O=C(NCCc1ccccc1)c1ccc2c(c1)OCO2 in your answer.
Reply text: 0.01

Inquiry: For the molecule Nc1ccccc1C(=O)NCCc1ccccc1 [2-amino-N-phenethylbenzamide] , give its reported Thres (mM), +IMP (0.2 mM).
Reply text: 0.01

Inquiry: Please supply the value of reported Thres (mM), +IMP (0.2 mM) for the item N[C@@H](Cc1c[nH]c2ccccc12)C(=O)O [L-Tryptophan, tryptophan]
Reply text: 0.1

###

Molecular target: cat T1R1/T1R3 receptor (Felis catus, UniProt A0ABI7Z2I4)
Sequence (A0ABI7Z2I4 171-420): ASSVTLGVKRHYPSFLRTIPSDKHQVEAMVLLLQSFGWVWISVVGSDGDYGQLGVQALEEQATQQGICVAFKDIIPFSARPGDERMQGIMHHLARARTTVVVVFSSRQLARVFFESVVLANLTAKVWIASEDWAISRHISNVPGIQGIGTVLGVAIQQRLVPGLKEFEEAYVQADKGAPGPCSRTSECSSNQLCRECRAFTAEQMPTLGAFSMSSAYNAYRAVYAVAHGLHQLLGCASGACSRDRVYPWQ
Sequence (Q49KI5 25-865 E206Q/N523D/F654L partner): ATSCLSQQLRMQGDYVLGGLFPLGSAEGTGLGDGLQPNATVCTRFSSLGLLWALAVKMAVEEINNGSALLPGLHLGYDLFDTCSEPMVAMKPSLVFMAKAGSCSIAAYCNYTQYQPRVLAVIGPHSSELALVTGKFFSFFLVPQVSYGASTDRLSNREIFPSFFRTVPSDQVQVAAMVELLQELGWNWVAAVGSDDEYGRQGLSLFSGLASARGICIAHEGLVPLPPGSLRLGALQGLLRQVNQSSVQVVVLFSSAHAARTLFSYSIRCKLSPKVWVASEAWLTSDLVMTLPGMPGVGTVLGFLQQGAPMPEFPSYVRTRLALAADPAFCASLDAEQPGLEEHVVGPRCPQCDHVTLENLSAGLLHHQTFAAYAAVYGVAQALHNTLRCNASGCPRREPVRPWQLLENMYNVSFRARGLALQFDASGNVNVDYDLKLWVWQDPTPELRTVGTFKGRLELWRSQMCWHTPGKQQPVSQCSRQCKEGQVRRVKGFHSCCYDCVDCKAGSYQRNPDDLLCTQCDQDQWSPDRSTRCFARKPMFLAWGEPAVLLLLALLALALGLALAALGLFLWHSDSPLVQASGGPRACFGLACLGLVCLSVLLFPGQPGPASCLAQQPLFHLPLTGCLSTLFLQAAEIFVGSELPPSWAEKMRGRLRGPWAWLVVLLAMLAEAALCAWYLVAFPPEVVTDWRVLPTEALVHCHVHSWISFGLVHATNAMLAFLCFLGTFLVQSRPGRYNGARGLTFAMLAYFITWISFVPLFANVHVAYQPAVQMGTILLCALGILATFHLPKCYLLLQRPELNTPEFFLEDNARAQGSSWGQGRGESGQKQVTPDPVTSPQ
Assay: cell-based
pEC50: −log10 of the molar value.
pEC50 below 4 gives not satisfied; pEC50 at or above it gives satisfied.

Inquiry: For this molecule, is measured pEC50 4 or higher? Nc1nc2c(ncn2[C@@H]2O[C@H](COP(=O)(O)O)[C@@H](O)[C@H]2O)c(=S)[nH]1 [6-thioguanosine-5′-O-monophosphate]
Reply text: satisfied

Inquiry: I'd appreciate it if you could say whether O=P(O)(O)OCC1OC(n2cnc3c(Cl)ncnc32)C(O)C1O (stereo not shown) has pEC50 at least equal to 4.
Reply text: satisfied

Inquiry: Item Nc1nc(Cl)c2ncn(C3OC(COP(=O)(O)O)C(O)C3O)c2n1 (stereo not shown) with pEC50 of 4 or above?
Reply text: satisfied

Inquiry: Form field: pEC50 at least 4? Entry: CSCC[C@H](N)C(=O)O [L-Methionine, methionine]
Reply text: not satisfied

Inquiry: Reported pEC50 reaches at least 4 for Nc1ncnc2c1ncn2[C@H]1C[C@H](O)[C@@H](COP(=O)(O)O)O1 [2′-Deoxyadenosine 5′-monophosphate] ?
Reply text: not satisfied

Inquiry: Hi team, for Nc1nc2c(ncn2[C@@H]2O[C@H](COP(=O)(O)O)[C@@H](O)[C@H]2O)c(=O)[nH]1 [GMP, guanosine monophosphate, reference compound] , is the recorded pEC50 at or above 4?
Reply text: satisfied

Inquiry: Say whether O=c1ccn([C@H]2C[C@H](O)[C@@H](COP(O)(O)=S)O2)c(=O)[nH]1 shows pEC50 of 4 or more.
Reply text: not satisfied

Inquiry: Textbook exercise: given the entry O=c1ccn([C@H]2O[C@@H](COP(=O)(O)O)[C@H](O)[C@@H]2O)c(=O)[nH]1 (stereo in doubt) [uridine monophosphate] , state whether its pEC50 is greater than or equal to 4.
Reply text: not satisfied

Inquiry: Is pEC50 for O=c1ccn([C@@H]2O[C@H](COP(=O)(O)O)[C@@H](O)[C@H]2O)c(=O)[nH]1 [UMP, uridine monophosphate, reference compound] at or above 4?
Reply text: not satisfied

Inquiry: Check if pEC50 >= 4 (inclusive). Item: Nc1nc2c(ncn2[C@@H]2O[C@H](COP(O)(O)=S)[C@@H](O)[C@H]2O)c(=O)[nH]1 [Guanosine-5′-monophosphorothioate]
Reply text: satisfied

Inquiry: Identify whether the reported pEC50 of the following molecule is 4 or greater: NC(=O)c1ncn(C2OC(COP(=O)(O)O)C(O)C2O)c1N (stereo not shown)
Reply text: not satisfied

Inquiry: In plain terms: is recorded pEC50 at least 4 for Nc1nc2c(ncn2[C@H]2O[C@@H](COP(=O)(O)O)[C@H](O)[C@@H]2O)c(=O)[nH]1 (stereo in doubt) [guanosine monophosphate, reference compound] ?
Reply text: satisfied

Inquiry: API: above_or_equal(metric=pEC50, cutoff=4) for item Nc1nc2c(ncn2[C@@H]2O[C@H](COP(=O)(O)OP(=O)(O)OP(=O)(O)O)[C@@H](O)[C@H]2O)c(=O)[nH]1 [Guanosine 5′-triphosphate]
Reply text: not satisfied

###

Biological target: cat T1R1/T1R3 receptor (Felis catus, UniProt A0ABI7Z2I4)
Assay: cell-based
From the text: HEK293 cells that stably express T1R3 and inducibly express T1R1 were exposed to nucleotide derivatives alone or in combination with one or more amino acids and/or one or more nucleotides to activate the umami receptor. Activation of the T1R1/T1R3 receptor was detected by a change in intracellular calcium levels using a calcium sensitive fluorescent dye and/or a luminescent reporter system. Cells that express T1R3 but not T1R1 were used as a control. […]
Where a name gives a salt, the structure may show the parent alone.
Measured attribute: Max. resp. % of IMP

Inquiry: Identify measured Max. resp. % of IMP associated with Nc1nc2c(nc(Br)n2[C@@H]2O[C@H](COP(=O)(O)O)[C@@H](O)[C@H]2O)c(=O)[nH]1 [8-Bromoguanosine-5′-O-monophosphate]
Reply text: 30.2 % of IMP

Inquiry: Answer with the recorded Max. resp. % of IMP for the compound listed here: Nc1nc2c(ncn2[C@@H]2O[C@H](COP(=O)(O)O)[C@@H](O)[C@H]2O)c(=S)[nH]1 [6-Thiogaunosine-5′-O-monophosphate]
Reply text: 140.6 % of IMP

Inquiry: For the compound Nc1nc2c(ncn2[C@@H]2O[C@H](COP(=O)(O)OP(=O)(O)OP(=O)(O)O)[C@@H](O)[C@H]2O)c(=O)[nH]1 [Guanosine 5′-triphosphate] , give its reported Max. resp. % of IMP.
Reply text: 145.5 % of IMP

Inquiry: Identify measured Max. resp. % of IMP corresponding to Nc1ncnc2c1nc(Cl)n2[C@@H]1O[C@H](COP(=O)(O)O)C(O)C1O (stereo partly shown) [8-Chloroadenosine-5′-O-monophosphate]
Reply text: 63.6 % of IMP

Inquiry: Name the recorded Max. resp. % of IMP of the compound listed here: Nc1nc2c(ncn2C2CC(O)C(COP(O)(O)=S)O2)c(=O)[nH]1 (stereo not shown)
Reply text: 86.7 % of IMP

Inquiry: Return Max. resp. % of IMP for the following compound: O=c1nc[nH]c2c1ncn2C1O[C@H](COP(=O)(O)OP(=O)(O)OP(=O)(O)O)[C@@H](O)[C@H]1O (stereo partly shown) [trisodium salt]
Reply text: 25.1 % of IMP

Inquiry: Indicate the recorded Max. resp. % of IMP value for this compound: O=c1ccn([C@H]2C[C@H](O)[C@@H](COP(O)(O)=S)O2)c(=O)[nH]1 [2′-Deoxyuridine-5′-O-monophosphosphorothioate (5′-dUMPS)]
Reply text: 43.4 % of IMP

Inquiry: Annotate the compound O=c1ccn([C@H]2C[C@H](O)[C@@H](COP(O)(O)=S)O2)c(=O)[nH]1 [2′-Deoxyuridine-5′-O-monophosphorothioate (5′-dUMPS)] with its measured Max. resp. % of IMP.
Reply text: 43.4 % of IMP

Inquiry: Give me measured Max. resp. % of IMP, please, for this compound: CNc1ccccc1C(=O)O[C@H]1C[C@H](n2cnc3c(N)ncnc32)O[C@@H]1COP(=O)(O)O
Reply text: 32.0 % of IMP

Inquiry: Give Max. resp. % of IMP for O=P(O)(O)OCC1OC(n2cnc3c(Cl)ncnc32)C(O)C1O (stereo not shown)
Reply text: 123.3 % of IMP
